# experimentSummary: ATG_AP_2_CIS: Attagene CIS-FACTORIAL HepG2 Assay for human Activator Protein 2 (AP-2) (AID 2282932)
# particulars: HepG2 AP-2 cis-reporter, Attagene transcription factor profiling; actives raise or lower the signal
Active and inactive are the calls of the source. How the source made its calls: active means hit-call score of the fitted dose curve at least 0.9, where 1 is the maximum; inactive means score below 0.9.
Outcome codes: y for active, n for inactive

> print(dat)
                                    compound  category
 1  CCCCCCCCCCCCCCCCCC(=O)OCC(CC)CCCC (stereo not given)         n
 2                                       C=O         n
 3                         Cc1ccc(C(C)C)cc1O         n
 4                              C=C(C)C(=O)O         n
 5                               CCCCCCCCCCN         n
 6                           CC(C)(C)NC(N)=O         n
 7     CC(C)(COC(=O)c1ccccc1)COC(=O)c1ccccc1         n
 8           CNCCCC12CCC(c3ccccc31)c1ccccc12         n
 9                       CCCCCCCCCCCCCC(=O)O         n
10                       O=C1NC(=O)c2ccccc21         n
11                           Cc1ccc2ccccc2n1         n
12  CN1[C@@H]2CC(OC(=O)[C@H](CO)c3ccccc3)C[C@H]1[C@@H]1O[C@@H]12 (stereo not given in full)         n
13   CC(C)OP(=O)(CP(=O)(OC(C)C)OC(C)C)OC(C)C         n
14                                    [Ca+2]         n
15  CO[Si](CCCn1c(=O)n(CCC[Si](OC)(OC)OC)c(=O)n(CCC[Si](OC)(OC)OC)c1=O)(OC)OC         n
16                               CCCCCCCCC=O         n
17  BrC1CCC(Br)C(Br)CCC(Br)C(Br)CCC1Br (stereo not given)         n
18                     CCCC/C=C\CCCCCCCCCC=O         n
19                                 CN(C)CCCN         n
20                        CCOC(=O)c1ccccc1OC         n
21   NC(=O)NC1NC(=O)NC1=O (stereo not given)         n
22                           CN(C)CCOCCN(C)C         n
23  O=[N+]([O-])c1ccc(C=Cc2ccc([N+](=O)[O-])cc2S(=O)(=O)O)c(S(=O)(=O)O)c1         n
24    COC(C(=O)O)c1ccccc1 (stereo not given)         n
25                          c1ccc2[nH]ccc2c1         n
26  CCCCCCCCCCCCCCCC(=O)OC[C@H](O)[C@H]1OC(=O)C(O)=C1O         n
27                          NC(=O)c1ccccc1Cl         y
28     C=C(C)C1CCC(C)CC1O (stereo not given)         n
29    CC1=CCC2C(C1)C2(C)C (stereo not given)         n
30                CCN(CC)CCOC(=O)c1ccc(N)cc1         n

The reported measurements were obtained from PubChem BioAssay (EPA / NIEHS).
